tested on: "in vitro" ruminal fluid culture; test: Lactate concentration in "in vitro" ruminal fluid culture; format: cell-based, calves; conditions: 12 hours of incubation
Measure name: Lactate (mg/L)
Just the number in mg/L, nothing appended.

Reported Lactate for COc1ccc([C@@H]2CC(=O)c3c(O)cc(O[C@@H]4O[C@H](CO)[C@@H](O)[C@H](O)[C@H]4O[C@@H]4O[C@@H](C)[C@H](O)[C@@H](O)[C@H]4O)cc3O2)cc1O was 45.8

Reported Lactate for C[C@@H]1O[C@@H](O[C@H]2[C@H](Oc3cc(O)c4c(c3)O[C@H](c3ccc(O)cc3)CC4=O)O[C@H](CO)[C@@H](O)[C@@H]2O)[C@H](O)[C@H](O)[C@H]1O was 77.8

Reported Lactate for C[C@@H]1O[C@@H](O[C@H]2[C@H](Oc3cc(O)c4c(c3)O[C@H](c3ccc(O)c(O)c3)CC4=O)O[C@H](CO)[C@@H](O)[C@@H]2O)[C@H](O)[C@H](O)[C@H]1O was 122.5

Reported Lactate for COc1ccc([C@@H]2CC(=O)c3c(O)cc(O[C@@H]4O[C@H](CO)[C@@H](O)[C@H](O)[C@H]4O[C@@H]4O[C@@H](C)[C@H](O)[C@@H](O)[C@H]4O)cc3O2)cc1 was 87.5

Reported Lactate for C[C@@H]1O[C@@H](OC[C@H]2O[C@@H](Oc3cc(O)c4c(c3)O[C@H](c3ccc(O)cc3)CC4=O)[C@H](O)[C@@H](O)[C@@H]2O)[C@H](O)[C@H](O)[C@H]1O was 92.4

Reported Lactate for COc1ccc([C@@H]2CC(=O)c3c(O)cc(O[C@@H]4O[C@H](CO[C@@H]5O[C@@H](C)[C@H](O)[C@@H](O)[C@H]5O)[C@@H](O)[C@H](O)[C@H]4O)cc3O2)cc1O was 44.3
